System Under Test: Gal(b1-4)GlcNAc(b1-3)Gal(b1-4)GlcNAc(b1-3)Gal(b1-4)GlcNAc(b1-3)Gal(b1-4)GlcNAc(b1-2)[Gal(b1-4)GlcNAc(b1-3)Gal(b1-4)GlcNAc(b1-3)Gal(b1-4)GlcNAc(b1-3)Gal(b1-4)GlcNAc(b1-6)]Man(a1-6)[Gal(b1-4)GlcNAc(b1-3)Gal(b1-4)GlcNAc(b1-3)Gal(b1-4)GlcNAc(b1-3)Gal(b1-4)GlcNAc(b1-2)Man(a1-3)]Man(b1-4)GlcNAc(b1-4)[Fuc(a1-6)]GlcNAc
Measurement Description: glycan array binding signal (z-score within array); higher = stronger binding
Conditions: glycan notation: IUPAC condensed, linker removed
Many of the other results were omitted from the sample, so the strongest signals are more common in it than they were.
Value Type: glycan array binding signal (z-score)
Please give only the number in your answer, with no unit.

Lab book: glycan array binding signal (z-score) of Arath Fbox (Arabidopsis thaliana), NP_178341.1 (protein) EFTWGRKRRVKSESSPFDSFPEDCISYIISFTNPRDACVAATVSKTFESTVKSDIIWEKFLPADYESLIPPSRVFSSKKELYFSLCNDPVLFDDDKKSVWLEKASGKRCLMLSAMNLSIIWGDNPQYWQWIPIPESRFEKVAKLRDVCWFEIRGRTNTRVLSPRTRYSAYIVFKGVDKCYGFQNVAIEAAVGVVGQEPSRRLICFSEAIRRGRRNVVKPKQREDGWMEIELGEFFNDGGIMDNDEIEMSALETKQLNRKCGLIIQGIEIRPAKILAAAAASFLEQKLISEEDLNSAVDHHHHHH noted as 2.36
